Tested on: HOP-62 NSCLC
Experiment: NCI-60 one-dose screen, 48 h (100 = growth as untreated, 0 = no growth, -100 = all killed)
Conditions: 10 µM unless noted
Compounds without any hit were thinned out: in the full panel of roughly 83,000, 20% have a hit.
measurement_kind: growth (%)
Please give a number only; it is taken to be in %.

Which growth value is on record for "Oc1ccc2c3c1O[C@H]1c4[nH]c5ccccc5c4C[C@@]4(O)C(C2)N(CC2CC2)CC[C@]314" ?
95.9

Which growth value is on record for "CC1(C)N=C(N)N=C(N)N1c1ccc(CCC(=O)Nc2cccc(S(=O)(=O)F)c2)cc1" ?
82.8

Which growth value is on record for "Oc1ccccc1OB(Oc1ccccc1O)N(CCCl)CCCl" ?
104

Which growth value is on record for "CC(C)Nc1ccc(Nc2ccccc2)cc1" ?
35.3

Which growth value is on record for "O=C(CCl)NCNC(=O)CCl" ?
97.2

Which growth value is on record for "CC(=O)O[C@H]1CC[C@H]2[C@@H]3CC[C@H]4CC=C(C)C[C@]4(C)[C@H]3CC[C@]12C" ?
98.9

Which growth value is on record for "CC(=O)[O][Hg][c]1ccccc1" ?
-87.9

Which growth value is on record for "COc1ccc(OC)c(/C=C(/C)[N+](=O)[O-])c1" ?
38.9

Which growth value is on record for NC(=O)C(Br)CBr (stereo not drawn) ?
-40.8

Which growth value is on record for "CCN(CC)c1ccc(C=C2C(=O)NC(=S)NC2=O)cc1" ?
98.1

Which growth value is on record for CNC(C)Cc1ccccc1 (stereo not drawn) (tested in a mixture with another compound) ?
98

Which growth value is on record for "CC(=O)Oc1ccc(Cl)cc1" ?
87.8

Which growth value is on record for COc1ccc(C(=O)c2ccc([As]=O)cc2)cc1 (stereo not drawn) ?
-86.1

Which growth value is on record for "Nc1ccc([N+](=O)[O-])c2c1Oc1ccccc1O2" ?
90.9

Which growth value is on record for c1ccc([As]=[As]c2ccccc2)cc1 (stereo not drawn) ?
-54.4

Which growth value is on record for "O=C(CCCN1CCC2(CC1)C(=O)NCN2c1ccc(F)cc1)c1ccc(F)cc1" ?
95.9

Which growth value is on record for "CNC(=O)Oc1ccccc1-c1ccccc1" ?
103

Which growth value is on record for "CC(=O)N(C)C1=Nc2ccc(Cl)cc2C(c2ccccc2)=[N+]([O-])C1" ?
96.3

Which growth value is on record for "CC1(C)CC(=O)CC(C)(C)N1N=O" ?
97.3

Which growth value is on record for "CC1(C)N=C(N)N=C(N)N1c1cccc(C(=O)Nc2cccc(S(=O)(=O)F)c2)c1" ?
105

Which growth value is on record for "COc1ccc(CN2CCN(Cc3ccccc3)CC2)c(O)c1" ?
93.4

Which growth value is on record for "COC(C)(C)CCC[C@H](C)C/C=C/C(C)=C/C(=O)OC(C)C" ?
107

Which growth value is on record for COc1c(O)c2c3c(c1OC)-c1ccccc1CC3N(C)CC2 (stereo not drawn) ?
104

Which growth value is on record for CCC(C)[C@H]1O[C@]2(C=C[C@@H]1C)C[C@@H]1C[C@@H](C/C=C(\C)[C@@H](OC3C[C@H](OC)C(O[C@H]4C[C@H](OC)[C@@H](O)[C@H](C)O4)[C@H](C)O3)[C@@H](C)/C=C/C=C3\CO[C@@H]4[C@H](O)C(C)=C[C@@H](C(=O)O1)[C@]34O)O2 (stereo partly drawn) ?
-6

Which growth value is on record for "O=S(=O)(O)c1ccc(-c2ccc([As](=O)(O)O)cc2)cc1" ?
98.6

Which growth value is on record for CCC1CN1P(=O)(OCCOC)N1CC1CC (stereo not drawn) ?
111

Which growth value is on record for "Clc1ccc(SSC(Cl)(Cl)Cl)cc1" ?
106

Which growth value is on record for "n1nc(-c2nonc2-c2nn[nH]n2)n[nH]1" ?
112

Which growth value is on record for Cc1ccc(C(=O)C2CN(C)CCC2(O)c2ccc(C)cc2)cc1 (stereo not drawn) ?
140

Which growth value is on record for N#CC1=C(N)Oc2cc3c(cc2C1c1cccs1)OCO3 (stereo not drawn) ?
26.3

Which growth value is on record for "C/C(=N/OC(=O)N(C)C)c1ccc(Cl)cc1Cl" ?
98.2

Which growth value is on record for "C[CH2][Sn]([CH2]C)([CH2]C)[NH]S(=O)(=O)c1ccc(C)cc1" ?
121

Which growth value is on record for "CC[C@]12C=CCN3CC[C@@]4(c5ccc(OC)cc5N(C)[C@H]4[C@@](O)(C(=O)OC)[C@@H]1OC(=O)CCCN1CCN(CCCC(=O)O[C@@H]4[C@]5(CC)C=CCN6CC[C@@]7(c8ccc(OC)cc8N(C)[C@H]7[C@@]4(O)C(=O)OC)[C@@H]65)CC1)[C@@H]32" ?
-82.5

Which growth value is on record for "Nc1c(Br)cc([N+](=O)[O-])cc1[N+](=O)[O-]" ?
117

Which growth value is on record for "O=C(NCc1ccc([N+](=O)[O-])cc1)Nc1ccc(S(=O)(=O)F)cc1" ?
70.5

Which growth value is on record for "O=C(O)c1[nH]c(=O)[nH]c(=O)c1F" ?
124

Which growth value is on record for "CC(C)[C@]12O[C@H]1[C@@H]1O[C@]13[C@]1(O[C@H]1C[C@H]1C4=C(CC[C@@]13C)C(=O)OC4)[C@@H]2OC(=O)OC(C)(C)C" ?
16.6

Which growth value is on record for CCC(CO)NC1CCCCC1 (stereo not drawn) ?
88.7

Which growth value is on record for "CC1(C)N=C(N)N=C(N)N1c1ccc(CNC(=O)Nc2ccc(S(=O)(=O)F)c(Cl)c2)c(Cl)c1" ?
29.4

Which growth value is on record for "Cc1cc(C)nc(C)c1.[Cl][Hg][Cl]" ?
102

Which growth value is on record for "COC[CH2][Hg][C]#[C][Hg][CH2]COC" ?
98.5

Which growth value is on record for "CO[C@@H]([CH2][Hg][S]C#N)[C@@H]([CH2][Hg][S]C#N)OC" ?
99.8

Which growth value is on record for "S=P(NC1CCCCC1)(N1CC1)N1CC1" ?
101

Each recorded value in this set is attributed to PubChem BioAssay (NCI).
